Where do these numbers come from? They come from patent US11584714B2.

# Ki per record follows
Biological target: UniProtKB P00734
Assay: Thrombin inhibition (Ki)
Format: biochemical
Details: read-out: Thrombin Ki

| compound | Ki |
| --- | --- |
| Cc1ccccc1C1=N/C(=C\c2ccco2)C(=O)O1 [compound 1] | < 10 µM |
| O=c1oc(-c2ccccc2[N+](=O)[O-])nc2ccccc12 [compound 14] | < 10 µM |
| Cc1c(/N=C/c2ccc(OC(=O)c3ccccn3)cc2)c(=O)n(-c2ccccc2)n1C [compound 17] | 25 to 100 µM |
| O=C(Oc1cccc([N+](=O)[O-])c1)c1ccco1 [compound 27] | 25 to 100 µM |
| CCc1cc2c(=O)oc(-c3ccccc3C)nc2s1 [compound 43] | 25 to 100 µM |
| Cc1c(/N=C/c2ccc(OC(=O)c3ccco3)cc2)c(=O)n(-c2ccccc2)n1C [compound 34] | 25 to 100 µM |
| Cc1cc(=O)oc2cc(OC(=O)c3ccco3)ccc12 [compound 12] | < 10 µM |
| CC(=O)Nc1ccc(OC(=O)c2ccccc2NC(=O)c2ccccc2Br)cc1 [compound 33] | < 10 µM |
| Nc1cc(OC(=O)c2ccco2)nn1S(=O)(=O)c1ccc(F)cc1 [compound 44] | 25 to 100 µM |
| COc1ccc(/C=C2\N=C(c3ccccc3OC)OC2=O)cc1OC [compound 3] | < 10 µM |
| O=Cc1ccc(OC(=O)c2ccco2)cc1 [compound 21] | < 10 µM |
| Cc1c(C(=O)Nc2ccccc2C(=O)O)cccc1[N+](=O)[O-] [compound 9] | < 10 µM |
| O=C(NNC(=O)c1cc2ccccc2cc1O)c1ccco1 [compound 7] | < 10 µM |
| COC(=O)c1cn(C(=O)c2cc(OC)cc(OC)c2)nc1N [compound 24] | 10 to 25 µM |
| COc1ccc(S(=O)(=O)n2nc(OC(=O)c3ccco3)cc2N)cc1 [compound 40] | < 10 µM |
| N#Cc1ccc(OC(=O)c2ccc(Br)o2)cc1 [compound 45] | 25 to 100 µM |

###

Target: mMASP-2 (Mus musculus (Mouse))
Sequence (Q91WP0 20-685): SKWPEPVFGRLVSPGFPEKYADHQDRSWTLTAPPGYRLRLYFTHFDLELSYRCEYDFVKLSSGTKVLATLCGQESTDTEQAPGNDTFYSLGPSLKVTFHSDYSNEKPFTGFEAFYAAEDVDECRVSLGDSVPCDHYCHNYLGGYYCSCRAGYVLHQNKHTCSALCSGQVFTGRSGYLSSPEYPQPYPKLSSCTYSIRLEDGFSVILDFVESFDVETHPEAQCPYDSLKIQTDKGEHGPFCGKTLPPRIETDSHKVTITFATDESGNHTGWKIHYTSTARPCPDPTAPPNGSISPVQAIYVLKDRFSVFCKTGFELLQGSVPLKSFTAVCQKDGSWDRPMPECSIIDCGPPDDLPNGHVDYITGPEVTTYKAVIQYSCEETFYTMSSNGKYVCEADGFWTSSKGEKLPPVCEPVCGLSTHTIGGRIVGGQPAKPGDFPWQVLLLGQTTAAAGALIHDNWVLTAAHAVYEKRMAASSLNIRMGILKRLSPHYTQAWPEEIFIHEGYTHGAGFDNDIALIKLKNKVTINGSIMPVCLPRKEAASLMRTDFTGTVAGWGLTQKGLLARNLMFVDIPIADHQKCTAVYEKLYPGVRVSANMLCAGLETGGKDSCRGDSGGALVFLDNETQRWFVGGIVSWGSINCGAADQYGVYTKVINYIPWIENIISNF
Assay: Enzymatic inhibition of mMASP-2
Type: biochemical
Settings: read-out: mMASP-2 Ki
Counter-ions that a name gives are not always drawn.

| compound | Ki |
| --- | --- |
| C[C@H](NC(=O)[C@@H](CCc1ccccc1)NC1CCC1)C(=O)NCc1ccc(C(=N)N)cc1 | < 500 nM |
| Cc1cccc([C@H]2CN[C@@H](C(=O)N[C@@H](C)C(=O)NCc3ccc(C(=N)N)cc3)C2)c1 | < 500 nM |
| Cc1cc(C[C@@H]2CN[C@@H](C(=O)N[C@@H](C)C(=O)NCc3cnc4c(c3)c(Cl)cn4C)C2)ccn1 [compound 1468, Trifluoroacetate] | < 500 nM |
| Cc1nc(N)ccc1CNC(=O)[C@H](C)NC(=O)[C@H]1C[C@H](Cc2ccc(F)c(Cl)c2)CN1 [compound 1459, Di-trifluoroacetate salt] | < 500 nM |
| C[C@H](NC(=O)[C@H]1C[C@H](c2ccccc2)CN1)C(=O)NCc1ccc2nccn2c1 [compound 1434, Dihydrochloride] | 10000 to 25000 nM |
| Cc1cc(Cl)cc(CNC(=O)[C@H](C)NC(=O)[C@H]2C[C@H](Cc3ccc(Cl)s3)CN2)c1O [compound 1456, Dihydrochloride] | 500 to 2500 nM |
| Cc1ccc(CC[C@@H](N)C(=O)N[C@@H](C)C(=O)NCc2ccc(C(=N)N)cc2)cc1 | < 500 nM |

###

# Ki annotations
Target: UniProt:Q91WP0
Experiment: Enzymatic inhibition of mMASP-2
Type: biochemical
Settings: read-out: mMASP-2 Ki
Structures can show the parent of a compound that is named as a salt.
metric name: Ki

| molecule | metric name | recorded result |
| --- | --- | --- |
| C[C@H](NC(=O)[C@H]1C[C@H](c2ccccc2)CN1)C(=O)NCc1cc(Cl)c2[nH]cnc2c1 [compound 1417, Trifluoroacetate salt] | Ki | 2500 to 10000 nM |
| Cc1nc(N)ccc1CNC(=O)[C@H](C)NC(=O)[C@H]1C[C@@H](C(C)c2ccccc2)CN1 (mixture of isomers) [compound 1344, Dihydrochloride] | Ki | < 500 nM |
| Cc1nc(N)ccc1CNC(=O)[C@H](C)NC(=O)[C@H]1C[C@H](Cc2cccc(C(=O)N3CCC3)c2)CN1 [compound 1420, Di-trifluoroacetate salt] | Ki | < 500 nM |
| C[C@H](NC(=O)[C@@H](CCc1ccccc1)NCCc1ccccc1)C(=O)NCc1ccc(C(=N)N)cc1 [compound 1340, Dihydrochloride] | Ki | < 500 nM |
